Target: ATF6 (Homo sapiens)
Construct: endogenous in cells; host or cells: U2-OS (ATCC HTB-96) stably transduced with the Cignal Lenti ATF6 luc reporter (Qiagen #CLS-6031L)
Sequence (P18850 whole entry): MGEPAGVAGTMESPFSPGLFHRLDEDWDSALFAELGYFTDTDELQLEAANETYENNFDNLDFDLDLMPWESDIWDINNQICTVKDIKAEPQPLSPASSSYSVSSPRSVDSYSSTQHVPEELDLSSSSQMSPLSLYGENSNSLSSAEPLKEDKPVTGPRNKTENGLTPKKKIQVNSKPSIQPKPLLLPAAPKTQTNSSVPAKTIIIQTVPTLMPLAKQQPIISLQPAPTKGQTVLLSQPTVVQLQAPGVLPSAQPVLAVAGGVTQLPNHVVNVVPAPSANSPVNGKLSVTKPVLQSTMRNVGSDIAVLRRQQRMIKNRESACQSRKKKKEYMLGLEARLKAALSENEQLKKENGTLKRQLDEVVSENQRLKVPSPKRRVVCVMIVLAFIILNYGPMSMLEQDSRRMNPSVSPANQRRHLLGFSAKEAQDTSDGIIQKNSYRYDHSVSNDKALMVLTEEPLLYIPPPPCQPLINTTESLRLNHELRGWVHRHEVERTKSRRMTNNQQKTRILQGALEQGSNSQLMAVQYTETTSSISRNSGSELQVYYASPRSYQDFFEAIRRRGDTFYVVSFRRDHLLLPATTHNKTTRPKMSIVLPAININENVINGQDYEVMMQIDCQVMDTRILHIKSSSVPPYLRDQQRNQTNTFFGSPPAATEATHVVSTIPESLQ
Experiment: ERSE ATF6-luciferase assay in presence of Tg-induced ER stress (U2-OS ATF6 TRE-luciferase reporter cells)
Format: cell-based
Settings: U2OS, 8 h, 1 μM test compound, in presence of ER stress (thapsigargin), Tg only = 100%, Table 2-2
test_readout: activity at 1 µM

Please review the entries below; each comes with its answer.
CC(c1c(Cl)cccc1Cl)n1cc(C#Cc2nnc(-c3ccccn3)s2)cn1 (centres unmarked): 75 to 100%
CC(c1ccc(C(F)(F)F)cc1C(F)(F)F)n1cc(C#Cc2nnc(-c3ccccn3)s2)cn1 (centres unmarked): < 50%
CC(c1ccc(C(F)(F)F)cc1C(F)(F)F)n1cc(C#Cc2nnc(-c3cnccn3)s2)cn1 (centres unmarked): 50 to 75%
Cc1nn(C(C)c2ccc(C(F)(F)F)cc2C(F)(F)F)cc1C#Cc1nnc(-c2ccccn2)s1 (centres unmarked): 50 to 75%
CC(c1ccc(C(F)(F)F)cc1C(F)(F)F)n1cc(CCc2nnc(-c3ccccn3)s2)cn1 (centres unmarked): 75 to 100%

Entry CC(c1ccc(C(F)(F)F)cc1C(F)(F)F)n1cc(/C=C\c2nnc(-c3ccccn3)s2)cn1 (centres unmarked) , activity at 1 µM reported as 100 to 125%

Field activity at 1 µM (entry `FC(F)(F)c1ccc(Cn2cc(C#Cc3nnc(-c4ccccn4)s3)cn2)c(C(F)(F)F)c1` ) reads 50 to 75%

The reported value for CC(c1ccc(C(F)(F)F)cc1C(F)(F)F)n1cc(/C=C/c2nnc(-c3ccccn3)s2)cn1 (centres unmarked) in terms of activity at 1 µM is 100 to 125%
